Molecular target: Bcl-w (Homo sapiens, UniProt Q92843)
Construct: c-myc
Sequence (Q92843 1-193): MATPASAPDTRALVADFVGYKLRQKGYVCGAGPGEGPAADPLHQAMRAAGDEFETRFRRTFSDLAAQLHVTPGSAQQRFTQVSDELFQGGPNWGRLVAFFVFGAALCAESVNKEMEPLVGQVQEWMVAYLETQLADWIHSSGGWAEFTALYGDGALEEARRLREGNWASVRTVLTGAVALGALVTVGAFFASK
Experiment: Competition fluorescence polarization (anisotropy) with fluoresceinated BIM
Format: binding
Conditions: competition FP source data; mean of three replicates; values above 5 μM are reported as > 5 μM in the figures; read-out: mean Ki (M) Bcl-w
experimental-endpoint: Ki
# output: number + unit

Request: Fill blank: measured Ki of the substance Ac-QWVREIAAGLRLAADNVNAQLER-NH2 [FS1] is ____.
Response: 7.76e-06 M

Request: Fill in the blank: the reported Ki of Ac-QWVREIAAQLRRMADDLNAQYER-NH2 [FS2_N/Puma_C] is ____.
Response: 8.83e-06 M

Request: I have this substance here, Ac-QWIREIAAGLRRFADILNAQVER-NH2 [FS3] , and I need its recorded Ki.
Response: 7.67e-07 M

Request: Field request: Ki | item: Ac-QWVREIAAGLRRAADDVNAQVER-NH2 [FS2]
Response: 8.27e-06 M

----------
molecular target: Bcl-xL (Homo sapiens, UniProt Q07817); construct: c-myc; test: Competition fluorescence polarization (anisotropy) with fluoresceinated BIM; type: binding; conditions: competition FP, 50 nM c-myc-tagged receptor + 25 nM fluoresceinated BIM, Tris pH 7.8, 23°C, 3 hr; mean ± SD of three replicates; read-out: Ki (nM) Bcl-xL
Sequence (Q07817 whole entry): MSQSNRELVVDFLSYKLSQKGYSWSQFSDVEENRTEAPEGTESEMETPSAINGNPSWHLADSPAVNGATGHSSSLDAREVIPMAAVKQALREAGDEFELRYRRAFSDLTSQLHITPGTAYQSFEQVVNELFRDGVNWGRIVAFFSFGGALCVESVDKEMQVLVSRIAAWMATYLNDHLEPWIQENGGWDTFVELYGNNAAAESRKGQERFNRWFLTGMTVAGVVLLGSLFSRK
experimental-endpoint: Ki (nM)
Give the value, in units of nM, as a plain number.

Request: Given the entry Ac-QWVREIAAQLRRMADDLNAQYER-NH2 [FS2_N/Puma_C] , what Ki was observed with Bcl-xL (Homo sapiens, UniProt Q07817)?
Response: 2.4

Request: Give recorded Ki with Bcl-xL (Homo sapiens, UniProt Q07817) for the following substance: Ac-QWAREIGAGLRRAADDVNAQVER-NH2 [Puma_N/FS2_C]
Response: 1100

----------
target: Bcl-w (Homo sapiens, UniProt Q92843); construct: c-myc; experiment: Competition fluorescence polarization (anisotropy) with fluoresceinated BIM; format: binding; conditions: competition FP source data; replicate 2
experimental-endpoint: Ki (M) Bcl-w
Numeric answer only, unit M assumed.

Request: What does the data say about its Ki (M) Bcl-w? Entry: Ac-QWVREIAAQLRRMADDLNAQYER-NH2 [FS2_N/Puma_C]
Response: 6.82e-06

Request: Name the reported Ki (M) Bcl-w value associated with the substance Ac-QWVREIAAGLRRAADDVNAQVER-NH2 [FS2]
Response: 6.45e-06

Request: Requested read-out: Ki (M) Bcl-w. Entry: Ac-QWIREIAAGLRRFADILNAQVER-NH2 [FS3]
Response: 8.54e-07

Request: Dear colleague, I am looking for the recorded Ki (M) Bcl-w of the following substance: Ac-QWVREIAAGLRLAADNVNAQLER-NH2 [FS1]
Response: 7.42e-06

----------
For each record, write down the corresponding Ki (M) Bcl-w.
target: Bcl-w (Homo sapiens); construct: c-myc; assay: Competition fluorescence polarization (anisotropy) with fluoresceinated BIM; assay type: binding; conditions: competition FP source data; replicate 3
# value in M; strip the unit string

Request: Lab note: need Ki (M) Bcl-w with Bcl-w (Homo sapiens) for entry Ac-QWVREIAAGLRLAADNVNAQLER-NH2 [FS1] , please look it up.
Response: 1.02e-05

Request: Test system Bcl-w (Homo sapiens); read-out Ki (M) Bcl-w; what value for Ac-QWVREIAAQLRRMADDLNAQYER-NH2 [FS2_N/Puma_C] ?
Response: 9.74e-06

Request: Item: Ac-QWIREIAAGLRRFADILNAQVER-NH2 [FS3] Test system: Bcl-w (Homo sapiens) Read-out: Ki (M) Bcl-w Value: ?
Response: 6.93e-07

Request: Any idea what Ki (M) Bcl-w came out for Ac-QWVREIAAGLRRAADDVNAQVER-NH2 [FS2] on Bcl-w (Homo sapiens)?
Response: 6.96e-06
